# Test system: MDA-MB-468 breast
# assay: NCI-60 one-dose screen, 48 h
# stated-conditions: 10 µM unless noted
The panel holds about 83,000 compounds, 20% with a hit somewhere; the sample as a whole holds those more often. Calls of active or inactive are those of the source. Rule for the calls: active = growth percent below 10; inactive = the rest.
One label from this list, please: 1 for active, 0 for inactive

Below, 2 molecules whose answers are already recorded.
Cc1c(C(=O)NC(Cc2ccccc2)C(O)C(=O)NCc2ccc(F)cc2)[nH]c2ccccc2c1=O (stereo not given) :: 0
COc1ccc(/C(C)=N/NC(=O)c2ccc(S(C)(=O)=O)cc2)cc1OC :: 0

What is the recorded call for this molecule in the test? `CC(C)C[C@H](NC(=O)[C@H](Cc1ccccc1)n1ccc(N2CCCCC2)cc1=O)B(O)O`
1

What is the recorded call for this molecule in the test? Cc1cccc(N2CCN(CC(O)COc3ccc(Cl)cc3)CC2)c1 (stereo not given)
0

What is the recorded call for this molecule in the test? `COc1ccc(/C=C/c2cc(N3CCOCC3)c3cc(F)c(F)cc3n2)cc1OC`
0
